Some binders, each annotated with its measured Signal (FLU).
measuredOn: T1, human DR3 (TNFRSF25) expressed on cells (human, UniProt Q93038 25-417)
T1 sequence: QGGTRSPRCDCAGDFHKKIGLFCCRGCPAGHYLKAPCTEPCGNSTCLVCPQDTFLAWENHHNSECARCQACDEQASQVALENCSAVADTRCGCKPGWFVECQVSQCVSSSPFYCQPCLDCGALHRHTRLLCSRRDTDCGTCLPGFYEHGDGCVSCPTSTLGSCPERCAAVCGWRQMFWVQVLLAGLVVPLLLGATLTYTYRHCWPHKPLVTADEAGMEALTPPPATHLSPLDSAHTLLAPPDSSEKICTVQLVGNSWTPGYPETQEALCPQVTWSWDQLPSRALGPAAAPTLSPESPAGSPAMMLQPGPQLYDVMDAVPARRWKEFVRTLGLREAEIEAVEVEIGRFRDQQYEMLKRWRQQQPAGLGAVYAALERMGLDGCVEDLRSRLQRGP
test: cell-based or functional assay
State the answer as a number, implicitly in FLU.

See these solved cases before continuing.
{"binder": "VHg6/VLg1 (antibody, human IgG1, V domains shown, human IgG1) VH: QVQLQQSGGGLVQPGGSLRLSCAASGFTFSSYAMSWVRQAPGKGLEWVATISDGDSYSYFPDSVKDRFTISRDNARNSLYLQMNSLRAEDTAVYYCARDRIYGSVQYYAMDYWGRGTLVTVSS VL: DVVMTQSPDSLAVSLGERATINCRASESVEFSGTSLMQWYQQKPGQPPKLLIYAASNVESGVPDRFSGSGSGTDFTLTISSLQAEDVVVYYCQQSRKLPYTFGGGTKVEIK", "Signal (FLU)": "2.16e+06"}
{"binder": "VHg10/VLg4 (antibody, human IgG1, V domains shown, human IgG1) VH: EVQLVESGGGLVQPGGSLRLSCAASGFTFSSYAMSWVRQAPGKGLEWVSTISDGDSYSYFPDSVKDRFTISRDNSKNTLYLQMNSLRAEDTAVYYCARDRIYGSVQYYAMDYWGQGTLVTVSS VL: DVVMTQSPDSLAVSLGERATISCRASESVEFSGTSLMQWYQQKPRQPLKLLIYAASNVESGVPDRFSGSGSGTDFTLTISSLQAEDVAVYYCQQSRKLPYTFGQGTRLEIK", "Signal (FLU)": "3.17e+06"}

Query binder follows.
Fill in the blank: the reported Signal (FLU) of VHg3/VLg12 (antibody, human IgG1, V domains shown, human IgG1) VH: EVQLVQSGGGLVKPGGSLRLSCAASGFKFSSYAMSWVRQAPGKGLEWLSTISDGDSYSYFPDSVKDRFIISRDNAKNSLYLQMNSLRVEDTGVYYCARDRIYGSVQYYAMDYWGQGTLVTVSS VL: EIVLTQSPATLSLSPGERATLSCRASESVEFSGTSLMQWYQQKPGQAPRLLIYAASNVESGIPARFSGSGSGTDFTLTISSLEPEDFAVYYCQQSRKLPYTFGQGTKLEIK is ____.
2.6e+06
